Entries and their GI50
Tested on: RXF 393
test-method-notes: NCI tumour cell line growth inhibition, 48 h
Active and inactive are the calls of the source. No stated cut-off is given here; in the data, active = GI50 up to about 1.1 µM and inactive = higher.

compound: NNc1nc2ccccc2s1
GI50: > 100 µM (inactive)

Qu. Quick one: GI50 of CC1CC(Br)C(=O)O1 (stereo not drawn) ?
Ans. > 100 µM (inactive)

Qu. Continue with CC(C)CCCC(C)[C@H]1CCC2[C@@H]3CCC4Cc5nc6c(nc5C[C@]4(C)C3CC[C@@]21C)CC1CC[C@@H]2C(CC[C@@]3(C)C2CC[C@@H]3C(C)CCCC(C)C)[C@@]1(C)C6 (stereo partly drawn)
Ans. > 100 µM (inactive)

Qu. Continue with CCC(C)CN1C(=O)NC(C)(Cc2ccccc2)C1=O (stereo not drawn)
Ans. > 100 µM (inactive)

Qu. Continue with "CC(=O)c1cccn1/C=C(\OC(=O)OC(C)(C)C)c1ccc[nH]1"
Ans. 33.8 µM (inactive)

Qu. Continue with "Oc1ccc2c(c1)-c1c(c3ccccc3n1CCN1CCOCC1)CC2"
Ans. 66.7 µM (inactive)

Qu. Continue with "COc1ccc(/C(Cl)=C(\C=O)c2ccc([N+](=O)[O-])cc2)cc1"
Ans. 11.5 µM (inactive)

Qu. Continue with "CNc1ccc(Cl)cc1C(=O)N1CCC[C@H]1CO"
Ans. > 100 µM (inactive)

----------
Entries and their GI50
System: ACHN
test-method-notes: NCI tumour cell line growth inhibition, 48 h
Calls of active or inactive are those of the source. Cut-off read from the data, not from the text of the source: active = GI50 up to about 1.1 µM and inactive = higher.

molecule: C=C(Cl)/C(=C\Cl)CCC(Br)C(C)C (configuration not stated)
system: ACHN
reported-result: > 100 µM (inactive)

Qu. Quick one: GI50 of C/C=C1/CCC2c3[nH]c4ccccc4c3CCN2C1 (configuration not stated) ?
Ans. > 100 µM (inactive)

Qu. Continue with COc1cccc2c1C1(O)C2CCCC12OCCCO2 (configuration not stated)
Ans. > 100 µM (inactive)

Qu. Continue with "C=C(CN(CC(=C)C(=O)c1ccccc1)C(C)(C)C)C(=O)c1ccccc1"
Ans. 8.99 µM (inactive)

Qu. Continue with "COc1ccc(CN(CCN(C)C)c2ccccn2)cc1.Cn1c(=O)c2[nH]c(Br)nc2n(C)c1=O"
Ans. > 100 µM (inactive)

Qu. Continue with "O=C1C=C2CC[C@H]3[C@@H]4CC[C@H](Oc5c6ccccc6nc6ccccc56)[C@H]4CC[C@@H]3[C@H]2CC1"
Ans. 48.4 µM (inactive)

Qu. Continue with CC(=O)O[C@H]1CC2C(C3CC[C@H](C(C)CCC(N)=O)[C@]31C)[C@H](OC(C)=O)C[C@@H]1CC3(CC[C@]21C)OOC1(CCC(C)CC1)OO3 (some centres not stated)
Ans. 1.8 µM (inactive)

Qu. Continue with "COc1cc(CC(=O)c2cc3c(cc2-c2ccccc2)OCO3)cc(OC)c1OC"
Ans. 6.95 µM (inactive)

Qu. Continue with "Cc1cc(Cl)nc(Nc2nc3ccccc3[nH]2)n1"
Ans. > 100 µM (inactive)

Qu. Continue with O=C1C=CC(=O)[C@H]2C3C=CC(C4C3C3(Cl)C(Cl)=C(Cl)[C@]4(Cl)C3(Cl)Cl)[C@@H]12 (some centres not stated)
Ans. 8.55 µM (inactive)

Qu. Continue with Cc1ccc2c(c1)-c1c3c(nn1C)-c1ccccc1SC3O2 (configuration not stated)
Ans. 54.1 µM (inactive)

Qu. Continue with "Cn1c(=O)cc2[nH]c3ccccc3n2c1=O"
Ans. 69.7 µM (inactive)

----------
Tested on: K562
test-method-notes: NCI tumour cell line growth inhibition, 48 h
The source made the active and inactive calls. Cut-off read from the data, not from the text of the source: active = GI50 up to about 1.1 µM and inactive = higher.
Entries and their GI50

Reference set (4 entries):
compound: CN1CCN([C@H]2C[C@H]3[C@@H]4CC=C5C[C@@H](O)CC[C@]5(C)[C@H]4CC[C@]3(C)C2=O)CC1
reported-result: 34.3 µM (inactive)
//
compound: Oc1ccc2c(c1)-c1c(c3ccccc3n1CCN1CCOCC1)CC2
reported-result: > 100 µM (inactive)
//
compound: N#Cc1cc(C#N)c(N)nc1N
reported-result: > 100 µM (inactive)
//
compound: CCCC/C=C1\CCC(CN2CCCCC2)C1=O (stereo not drawn)
reported-result: 7.82 µM (inactive)

Then this compound:
Qu. Quick one: GI50 of COC(=O)C1CCC(=O)N1CN(C(C)=O)c1ccccc1Cl (stereo not drawn) ?
Ans. > 10 µM (inactive)

----------
Test system: CCRF-CEM
test-method-notes: NCI tumour cell line growth inhibition, 48 h
The source made the active and inactive calls. Rule as the data show it: active = GI50 up to about 1.1 µM and inactive = higher.
Choose the fitting class; nothing outside active, inactive is accepted.

The following compounds have reported results that may help.
compound: O=c1[nH]c(N/N=C\C(=N/Nc2nc3ccccc3c(=O)[nH]2)C(O)C(O)C(O)CO)nc2ccccc12 (stereo not drawn)
assigned-label: inactive

compound: CCO[C@H]1O[C@@H]2OC3(C)CCC4[C@H](C)CCC([C@H]1C)[C@]42OO3 (stereo partly drawn)
assigned-label: inactive

compound: CCCCCCCCCCCC(=O)N(CCCCCCCCCCC(=O)O)CC(O)C(O)C(OC1OC(CO)C(O)C(O)C1O)C(O)CO (stereo not drawn)
assigned-label: inactive

compound: Nc1nc2[nH]cnc2c(=O)[nH]1
assigned-label: inactive

compound: O=C(CCCC(=O)Nc1ccc(Cl)cc1Cl)CC(=O)c1ccc2ccccc2c1
assigned-label: inactive

Qu. Status in this test for "Cc1cc(Cl)nc(Nc2nc3ccccc3[nH]2)n1" ?
Ans. inactive

Qu. Continue with Cn1nc(/C=C\C(=O)N2CC(CCl)c3c2cc(N)c2ccccc32)cc1/C=C/C(=O)N1CC(CCl)c2c1cc(N)c1ccccc21 (stereo not drawn)
Ans. active

Qu. Continue with "COC(=O)[C@]12CC[C@H]3CN(C(=O)OCc4ccccc4)[C@H]([C@H]31)[C@H](C(=O)OCC[Si](C)(C)C)N2S(=O)(=O)c1ccc(C)cc1"
Ans. inactive

Qu. Continue with "OC(c1ccccc1)(c1ccccc1)c1ccccn1"
Ans. inactive

Qu. Continue with "Oc1ccc(-c2nc(-c3ccc4ccccc4n3)c(-c3ccc(F)cc3)[nH]2)cc1"
Ans. inactive

Qu. Continue with "CCOC(=O)CCSS(=O)(=O)c1ccccc1"
Ans. inactive

Qu. Continue with O=C1C(/C=C/c2ccc(Cl)cc2)=NNC2N1N=C1NC(=O)C3(NN12)c1ccccc1-c1ccccc13 (stereo not drawn)
Ans. inactive

Qu. Continue with O=C(O)c1cc(N(Cc2ccccc2O)Cc2cc(O)ccc2O)ccc1O [LAVENDUSTIN A]
Ans. inactive

Qu. Continue with "CCCSc1nc(COC(=O)NC)c(COC(=O)NC)n1C"
Ans. inactive

Qu. Continue with "COc1cc(OC)nc(NC(=O)NS(=O)(=O)c2cccc3ncn(C)c(=O)c23)n1"
Ans. inactive

Qu. Continue with "Oc1cccc2ccc(Br)nc12"
Ans. inactive

Qu. Continue with "N#Cc1ncc(C(Cl)Cl)nc1Cl"
Ans. active

Qu. Continue with "CC(=O)Nc1ccc2cc(C)c(O)nc2n1"
Ans. inactive

----------
Entries and their GI50
Tested on: RXF 393
test-method-notes: NCI tumour cell line growth inhibition, 48 h
Calls of active or inactive are those of the source. Rule as the data show it: active = GI50 up to about 1.1 µM and inactive = higher.

Reference set (2 entries):
molecule: CC(C)(C)N(Cc1ccccc1)C(=O)/C=C\[S+]([O-])c1ccccc1 (stereo not drawn)
GI50: 3.8 µM (inactive)

molecule: CC1=C/C(=N\NS(=O)(=O)c2ccc([N+](=O)[O-])cc2)CC(C)(C)C1
GI50: > 100 µM (inactive)

Then this molecule:
Qu. Quick one: GI50 of "COc1cc(/C=C2\N=C(c3ccccc3)N(c3cc4cc(Sc5ccccc5)ccc4[nH]3)C2=O)ccc1O" ?
Ans. 5.02 µM (inactive)

----------
Test system: NCI/ADR-RES
test-method-notes: NCI tumour cell line growth inhibition, 48 h
Calls of active or inactive are those of the source. Rule as the data show it: active = GI50 up to about 1.1 µM and inactive = higher.
recorded-metric: GI50

Reference set (2 entries):
smiles-code: [N-]=[N+]=Nc1c([N+](=O)[O-])c(=O)n(-c2ccccc2)c2ccccc12
reported-result: 20.7 µM (inactive)

smiles-code: COc1ccc2oc(=N)c(C(=O)Nc3cccc4ccccc34)cc2c1
reported-result: 25.8 µM (inactive)

Qu. Quick one: GI50 of "O=c1/c(=C/c2ccc(-c3ccc(Cl)cc3Cl)o2)sc2n1[C@@H](c1ccc(Cl)cc1)C=C(c1cc(F)c(Cl)cc1Cl)N=2" ?
Ans. 50.8 µM (inactive)

----------
Entries and their GI50
System: OVCAR-8
test-method-notes: NCI tumour cell line growth inhibition, 48 h
Activity calls are given as the source filed them. Rule as the data show it: active = GI50 up to about 1.1 µM and inactive = higher.

Reference set (4 entries):
molecule: Cn1cnc([N+](=O)[O-])c1Sc1nc2ccccc2o1
GI50: 2.82 µM (inactive)
--
molecule: COC12C=C(C)C(CC1)CC2C(=O)O (stereo not given)
GI50: > 100 µM (inactive)
--
molecule: CN(C)CCc1ccnc2nc(-c3ccc4ccccc4c3)cn12
GI50: 26.9 µM (inactive)
--
molecule: C=C(CN(CC(=C)C(=O)c1ccccc1)C(C)(C)C)C(=O)c1ccccc1
GI50: 20.5 µM (inactive)

Qu. Quick one: GI50 of Nc1nc(Br)nc2ncn(C3CC(O)C(CO)O3)c12 (stereo not given) ?
Ans. 0.236 µM (active)
